ASSAYED TARGET: Autophagy-related protein 16-1 (Homo sapiens) (UniProt Q676U5)
Sequence (Q676U5 whole entry T300A, looked up): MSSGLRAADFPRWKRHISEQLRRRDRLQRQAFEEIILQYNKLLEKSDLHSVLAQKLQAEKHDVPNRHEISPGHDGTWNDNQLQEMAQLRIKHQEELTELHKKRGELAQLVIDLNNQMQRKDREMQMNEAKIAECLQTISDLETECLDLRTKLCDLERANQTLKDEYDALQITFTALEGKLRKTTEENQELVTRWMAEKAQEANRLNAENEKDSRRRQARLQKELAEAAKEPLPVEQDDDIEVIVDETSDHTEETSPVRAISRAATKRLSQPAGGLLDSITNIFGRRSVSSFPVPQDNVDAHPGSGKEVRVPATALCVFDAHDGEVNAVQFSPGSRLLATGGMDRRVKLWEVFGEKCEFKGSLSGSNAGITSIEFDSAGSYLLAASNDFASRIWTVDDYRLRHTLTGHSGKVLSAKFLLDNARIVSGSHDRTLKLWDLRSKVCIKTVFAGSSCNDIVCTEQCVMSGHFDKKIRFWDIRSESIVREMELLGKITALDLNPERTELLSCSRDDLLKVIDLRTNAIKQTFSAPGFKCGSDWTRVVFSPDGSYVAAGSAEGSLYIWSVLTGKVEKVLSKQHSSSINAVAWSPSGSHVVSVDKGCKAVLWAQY
PROTOCOL SUMMARY: blockers of caspase-3 processing of ATG16L1 variant – biochemical, AlphaLISA, recombinant protein, with or without FKBP12, dose response (AID 1963956)
CONDITION PARAMETERS: recombinant ATG16L1 T300A + caspase-3, AlphaLISA; with FKBP12
QUANTITY NAME: EC50

Input line: Would you mind telling me what EC50 value was observed for CCC(C)(C)C(=O)C(=O)N1CCCC[C@H]1C(=O)N[C@H](CCc1ccc(OC)cc1)C(=O)N1[C@@H]2CC[C@H]1CC(Nc1nc(NCCc3sc(N)nc3C)nc(N3CCn4ncnc4C3)n1)C2 (stereo partly specified) ?
Output line: 10.8 µM

---

ASSAYED TARGET: Autophagy-related protein 16-1 (Homo sapiens)
PROTOCOL SUMMARY: blockers of caspase-3 processing of ATG16L1 variant – biochemical, AlphaLISA, recombinant protein, with or without FKBP12, dose response (AID 1963956)
CONDITION PARAMETERS: recombinant ATG16L1 T300A + caspase-3, AlphaLISA; without FKBP12
QUANTITY NAME: EC50

Input line: If you can, please state the reported EC50 value of CCC(C)(C)C(=O)C(=O)N1CCCC[C@H]1C(=O)N[C@H](CCc1ccc(OC)cc1)C(=O)N1[C@@H]2CC[C@H]1CC(Nc1nc(NCCc3sc(N)nc3C)nc(N3CCn4ncnc4C3)n1)C2 (stereo partly specified) .
Output line: 12.1 µM
